Measured Percent inhibition LDLR mRNA levels by item
# Test system: LDLR mRNA
# procedure.text: LDLR mRNA levels in C57BL/6 mice
# Type: in vivo, mouse
# condition.description: 50 mg/kg/week, 6 weeks, compared to PBS control
Oligonucleotides are written 5' to 3', each unit as a sugar letter and its base; * is a phosphorothioate linkage, no mark a phosphodiester; rarer units and linkages stand in square brackets, end groups in braces. Plain capitals give the bases only. e = 2'-O-(2-methoxyethyl) (MOE); [5mC] = 5-methylcytosine; d = 2'-deoxy (DNA)
I only need the number, in %, no unit after it.

Some sequences with recorded Percent inhibition LDLR mRNA levels:
- input.sequence: "GCAGCTCGATTCGGGCATGA (antisense eG*e[5mC]*eA*eG*e[5mC]*dT*d[5mC]*dG*dA*dT*dT*d[5mC]*dG*dG*dG*e[5mC]*eA*eT*eG*eA) [ISIS 447118]"
  test.result: 6
- input.sequence: "GCCACCAGTGCCTGCTGAGC (antisense eG*e[5mC]*e[5mC]*eA*e[5mC]*d[5mC]*dA*dG*dT*dG*d[5mC]*d[5mC]*dT*dG*d[5mC]*eT*eG*eA*eG*e[5mC]) [ISIS 447143]"
  test.result: 34
- input.sequence: "TATTTCTATAGCTCATGACA (antisense eT*eA*eT*eT*eT*d[5mC]*dT*dA*dT*dA*dG*d[5mC]*dT*d[5mC]*dA*eT*eG*eA*e[5mC]*eA) [ISIS 447144]"
  test.result: 2

// switching to the query sequence
Value of measured Percent inhibition LDLR mRNA levels for the entry CGGATGATTCTTGCTGGTAA (antisense e[5mC]*eG*eG*eA*eT*dG*dA*dT*dT*d[5mC]*dT*dT*dG*d[5mC]*dT*eG*eG*eT*eA*eA) [ISIS 447114] : 2

* * *

# System: murine TTC39A mRNA
# procedure.text: Antisense inhibition of mouse TTC39A in b.END cells, single dose
# Format: cell-based
# condition.description: 70 nM, cytofectin, ~24 h, vs untreated control
Oligonucleotides are written 5' to 3', each unit as a sugar letter and its base; * is a phosphorothioate linkage, no mark a phosphodiester; rarer units and linkages stand in square brackets, end groups in braces. Plain capitals give the bases only. e = 2'-O-(2-methoxyethyl) (MOE); [5mC] = 5-methylcytosine; d = 2'-deoxy (DNA)
property.measured: % inhibition of murine TTC39A mRNA (%)
I only need the number, in %, no unit after it.

Some sequences with recorded % inhibition of murine TTC39A mRNA:
- input.sequence: "CACCTGGGTTTGAGGTAGCT (e[5mC]*eA*e[5mC]*e[5mC]*eT*dG*dG*dG*dT*dT*dT*dG*dA*dG*dG*eT*eA*eG*e[5mC]*eT; antisense) [ISIS 474498]"
  property.measured: "% inhibition of murine TTC39A mRNA"
  unit.text: "%"
  test.result: 95
- input.sequence: "AGTTGGGACCCAGAAGGCCT (eA*eG*eT*eT*eG*dG*dG*dA*d[5mC]*d[5mC]*d[5mC]*dA*dG*dA*dA*eG*eG*e[5mC]*e[5mC]*eT; antisense) [ISIS 474497]"
  property.measured: "% inhibition of murine TTC39A mRNA"
  unit.text: "%"
  test.result: 94
- input.sequence: "CCGCACTTTGATGCCGCCCT (e[5mC]*e[5mC]*eG*e[5mC]*eA*d[5mC]*dT*dT*dT*dG*dA*dT*dG*d[5mC]*d[5mC]*eG*e[5mC]*e[5mC]*e[5mC]*eT; antisense) [ISIS 474435]"
  property.measured: "% inhibition of murine TTC39A mRNA"
  unit.text: "%"
  test.result: 94

Value of measured % inhibition of murine TTC39A mRNA for the entry GCATGTAGAGAACTTCCAGG (eG*e[5mC]*eA*eT*eG*dT*dA*dG*dA*dG*dA*dA*d[5mC]*dT*dT*e[5mC]*e[5mC]*eA*eG*eG; antisense) [ISIS 474382] : 95

Value of measured % inhibition of murine TTC39A mRNA for the entry TCCTTGCTCAGCAGGTCGGC (eT*e[5mC]*e[5mC]*eT*eT*dG*d[5mC]*dT*d[5mC]*dA*dG*d[5mC]*dA*dG*dG*eT*e[5mC]*eG*eG*e[5mC]; antisense) [ISIS 474366] : 93

* * *

# Tested on: murine TTC39C mRNA
# procedure.text: Dose-dependent antisense inhibition of murine TTC39C in mouse primary hepatocytes
# Assay type: cell-based
# condition.description: 2000.0 nM, electroporation, ~16 h
Oligonucleotides are written 5' to 3', each unit as a sugar letter and its base; * is a phosphorothioate linkage, no mark a phosphodiester; rarer units and linkages stand in square brackets, end groups in braces. Plain capitals give the bases only. e = 2'-O-(2-methoxyethyl) (MOE); [5mC] = 5-methylcytosine; d = 2'-deoxy (DNA)
Measured percent inhibition of TTC39C mRNA by item
I only need the number, in %, no unit after it.

Some substances with recorded percent inhibition of TTC39C mRNA:
- substance: "ISIS 474607: 5-10-5 MOE gapmer antisense oligonucleotide targeting murine TTC39C (antisense eT*e[5mC]*eA*eA*eT*d[5mC]*dA*dT*dG*d[5mC]*dT*dG*d[5mC]*dA*d[5mC]*e[5mC]*eA*eG*e[5mC]*e[5mC])"
  percent inhibition of TTC39C mRNA, %: 85
- substance: "ISIS 474535: 5-10-5 MOE gapmer antisense oligonucleotide targeting murine TTC39C (antisense eT*e[5mC]*e[5mC]*eA*e[5mC]*dT*dT*d[5mC]*dA*dT*dG*dG*d[5mC]*dA*dA*eG*e[5mC]*eT*eT*eG)"
  percent inhibition of TTC39C mRNA, %: 61
- substance: "ISIS 474654: 5-10-5 MOE gapmer antisense oligonucleotide targeting murine TTC39C (antisense eT*e[5mC]*eA*eG*e[5mC]*dT*dA*d[5mC]*dA*dG*dA*dA*d[5mC]*dG*d[5mC]*eA*eG*eG*eG*eT)"
  percent inhibition of TTC39C mRNA, %: 38

// switching to the query substance
Value of measured percent inhibition of TTC39C mRNA for the entry ISIS 474517: 5-10-5 MOE gapmer antisense oligonucleotide targeting murine TTC39C (antisense e[5mC]*e[5mC]*eT*e[5mC]*eG*dA*dA*dT*dG*dT*d[5mC]*dA*dT*d[5mC]*dA*eT*eG*eG*e[5mC]*eG) : 89

* * *

# procedure.text: Plasma cholesterol and triglycerides in C57BL/6 mice (Olympus AU400e)
# Type: in vivo, mouse
# condition.description: Week 6, 50 mg/kg/week
Oligonucleotides are written 5' to 3', each unit as a sugar letter and its base; * is a phosphorothioate linkage, no mark a phosphodiester; rarer units and linkages stand in square brackets, end groups in braces. Plain capitals give the bases only. e = 2'-O-(2-methoxyethyl) (MOE); [5mC] = 5-methylcytosine; d = 2'-deoxy (DNA)
property.measured: HDL cholesterol levels
Answers without a unit are incomplete; give the number and then its unit.

Some sequences with recorded HDL cholesterol levels:
- input.sequence: "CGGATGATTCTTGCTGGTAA (antisense e[5mC]*eG*eG*eA*eT*dG*dA*dT*dT*d[5mC]*dT*dT*dG*d[5mC]*dT*eG*eG*eT*eA*eA) [ISIS 447114]"
  test.result: "96 mg/dL"
- input.sequence: "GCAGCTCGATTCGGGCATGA (antisense eG*e[5mC]*eA*eG*e[5mC]*dT*d[5mC]*dG*dA*dT*dT*d[5mC]*dG*dG*dG*e[5mC]*eA*eT*eG*eA) [ISIS 447118]"
  test.result: "100 mg/dL"
- input.sequence: "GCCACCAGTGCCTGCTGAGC (antisense eG*e[5mC]*e[5mC]*eA*e[5mC]*d[5mC]*dA*dG*dT*dG*d[5mC]*d[5mC]*dT*dG*d[5mC]*eT*eG*eA*eG*e[5mC]) [ISIS 447143]"
  test.result: "91 mg/dL"

// switching to the query sequence
Value of measured HDL cholesterol levels for the entry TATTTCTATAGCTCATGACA (antisense eT*eA*eT*eT*eT*d[5mC]*dT*dA*dT*dA*dG*d[5mC]*dT*d[5mC]*dA*eT*eG*eA*e[5mC]*eA) [ISIS 447144] : 90 mg/dL

* * *

# procedure.text: Plasma cholesterol and triglycerides in C57BL/6 mice (Olympus AU400e)
# Type: in vivo, mouse
# condition.description: Week 6, 50 mg/kg/week
Oligonucleotides are written 5' to 3', each unit as a sugar letter and its base; * is a phosphorothioate linkage, no mark a phosphodiester; rarer units and linkages stand in square brackets, end groups in braces. Plain capitals give the bases only. e = 2'-O-(2-methoxyethyl) (MOE); [5mC] = 5-methylcytosine; d = 2'-deoxy (DNA)
property.measured: total cholesterol levels (mg/dL)
I only need the number, in mg/dL, no unit after it.

Some sequences with recorded total cholesterol levels:
- input.sequence: "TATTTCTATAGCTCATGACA (antisense eT*eA*eT*eT*eT*d[5mC]*dT*dA*dT*dA*dG*d[5mC]*dT*d[5mC]*dA*eT*eG*eA*e[5mC]*eA) [ISIS 447144]"
  unit.text: "mg/dL"
  test.result: 107
- input.sequence: "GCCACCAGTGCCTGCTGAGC (antisense eG*e[5mC]*e[5mC]*eA*e[5mC]*d[5mC]*dA*dG*dT*dG*d[5mC]*d[5mC]*dT*dG*d[5mC]*eT*eG*eA*eG*e[5mC]) [ISIS 447143]"
  unit.text: "mg/dL"
  test.result: 104
- input.sequence: "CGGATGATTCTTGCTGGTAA (antisense e[5mC]*eG*eG*eA*eT*dG*dA*dT*dT*d[5mC]*dT*dT*dG*d[5mC]*dT*eG*eG*eT*eA*eA) [ISIS 447114]"
  unit.text: "mg/dL"
  test.result: 114

// switching to the query sequence
Value of measured total cholesterol levels for the entry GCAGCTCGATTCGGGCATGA (antisense eG*e[5mC]*eA*eG*e[5mC]*dT*d[5mC]*dG*dA*dT*dT*d[5mC]*dG*dG*dG*e[5mC]*eA*eT*eG*eA) [ISIS 447118] : 97
